List of GI50 values.
- Test system: MDA-MB-435
- ASSAY EXPLANATION: NCI tumour cell line growth inhibition, 48 h
The source made the active and inactive calls. No stated cut-off is given here; in the data, active = GI50 up to about 1.1 µM and inactive = higher. Residues, ends and D or L forms follow the SMILES beside them. *: point of attachment. Bn = c1ccc(C*)cc1

COc1ccc(P2(=S)Oc3ccccc3-c3ccccc3O2)cc1
0.144 µM (active)

Specify GI50 for COc1cc2c3c4[n+](cc2c(OC)c1OC)CCC4CCC3 (centres undefined) and stop. > 100 µM (inactive)

Specify GI50 for OC(CCN1CCN(CCOC(c2ccc(F)cc2)c2ccc(F)cc2)CC1)c1ccccc1 (centres undefined) and stop. 17.8 µM (inactive)

Specify GI50 for Cc1cc(Cl)ccc1OCC(=O)Nc1nc(N)nc(N)n1 and stop. > 100 µM (inactive)

Specify GI50 for COC(=O)C(CC(C)C)NC(=O)C(N)Cc1ccc(OCc2ccccc2)cc1 (centres undefined) (H-Tyr(Bn)-Leu-OMe; configuration not given here) and stop. > 10 µM (inactive)

Specify GI50 for N=c1oc2ccc3ccccc3c2cc1-c1nc(O)c2ccccc2n1 and stop. 58.3 µM (inactive)

Specify GI50 for COc1cc(N(CCC#N)CCC#N)ccc1C(=N/NC(=O)c1cc(Br)ccc1O)/N=N/c1ccc(C)cc1 and stop. 44.9 µM (inactive)

Specify GI50 for COc1cc2cc[n+](C)c(Cc3ccc(Oc4cc(Cc5c6cc(OC)c(OC)cc6cc[n+]5C)ccc4OC)cc3)c2cc1OC and stop. > 100 µM (inactive)

Specify GI50 for COc1cccc(NC(=O)c2c(SC)c(C#N)c(=O)n(N)c2N)c1 and stop. 97.5 µM (inactive)

The reported measurements were obtained from ChEMBL document CHEMBL1201862.
